I'd appreciate it if you could supply Top (%) values for the items below.
Target under test: human MC4R (Homo sapiens, UniProt P32245)
Construct: expressed in transfected cells; host or cells: HEK293/MC4R/CRE-GFP
Sequence (P32245 whole entry): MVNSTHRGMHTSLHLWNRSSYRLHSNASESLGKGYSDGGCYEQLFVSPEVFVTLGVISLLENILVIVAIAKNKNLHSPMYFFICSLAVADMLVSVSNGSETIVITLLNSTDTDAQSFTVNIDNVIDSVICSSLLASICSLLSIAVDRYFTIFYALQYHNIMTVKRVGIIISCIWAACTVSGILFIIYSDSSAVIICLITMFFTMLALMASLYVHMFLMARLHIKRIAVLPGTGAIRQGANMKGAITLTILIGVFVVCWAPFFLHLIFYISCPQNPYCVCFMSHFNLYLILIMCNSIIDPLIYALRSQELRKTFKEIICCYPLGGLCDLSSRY
Test method notes: cAMP accumulation assay (HTRF), antagonist activity at MC4R
Format: cell-based
Condition context: dose-response fit, MC4R
Positions of bridges follow the written chain, without caps; N, C: chain ends. No end group written: not given here.
Kindly report the value followed by its unit.

Inquiry: Data request, read-out Top (%), for Ac-Leu-c(Asp-Pro-Trp-Arg-Trp-Lys)-Val-Pro-NH2 (Ac-LDPWRWKVP-NH2; lactam 2-7; SMILES CC(=O)N[C@@H](CC(C)C)C(=O)N[C@H]1CC(=O)NCCCC[C@@H](C(=O)N[C@H](C(=O)N2CCC[C@H]2C(N)=O)C(C)C)NC(=O)[C@H](Cc2c[nH]c3ccccc23)NC(=O)[C@H](CCCNC(=N)N)NC(=O)[C@H](Cc2c[nH]c3ccccc23)NC(=O)[C@@H]2CCCN2C1=O) [Peptide C2]
Reply text: −2.85%

Inquiry: Data request, read-out Top (%), for IPWRWVP [Peptide C5]
Reply text: 3.02%

Inquiry: Data request, read-out Top (%), for LDPFFRWKVP [Peptide B7]
Reply text: 516.09%

Reference source: patent US20260098072A1
